Hey, just so you know, these numbers are from patent US5545755A.

targetEntity: 5-hydroxytryptamine (5-HT1A) receptor (Bos taurus, UniProt F6Q2H9)
Construct: bovine brain homogenate; from tissue; host or cells: bovine brain homogenate
Sequence (F6Q2H9 1-422): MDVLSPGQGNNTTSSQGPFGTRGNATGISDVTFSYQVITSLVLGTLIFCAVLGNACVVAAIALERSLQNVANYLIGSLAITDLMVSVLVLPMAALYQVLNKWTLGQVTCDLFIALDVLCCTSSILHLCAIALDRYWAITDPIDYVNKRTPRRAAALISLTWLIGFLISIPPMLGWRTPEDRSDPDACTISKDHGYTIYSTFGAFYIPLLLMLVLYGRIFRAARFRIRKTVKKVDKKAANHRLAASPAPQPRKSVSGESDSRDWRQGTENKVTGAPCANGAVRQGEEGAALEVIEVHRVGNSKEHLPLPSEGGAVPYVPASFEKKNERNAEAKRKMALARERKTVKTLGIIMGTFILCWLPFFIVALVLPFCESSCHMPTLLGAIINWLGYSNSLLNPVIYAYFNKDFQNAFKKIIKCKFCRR
testSummary: Inhibition of 8-OH-DPAT binding in a bovine brain homogenate (5-HT1A binding)
runParameters: read-out: 5-HT1A Binding IC50
Description: Binding: Inhibition of 8-OH-DPAT binding in a bovine brain homogenate. Potency is given as nM dose required to inhibit 50% of DPAT binding (IC50). This test measures ability to bind to 5-hydroxytryptamine (5-HT1A) receptor.
pIC50: −log10 of the molar value.
measuredProperty: pIC50

>>> datavalue("CCCN(CC1CC1)C1CCc2cccc(C(N)=O)c2C1 (centres unmarked) [Example 5 Compound 2]")
7.89

(I) NC(=O)c1cccc2c1CC(N1CCCC1)CC2 (single isomer, unassigned; (+)) [Compound 60-1]
(II) Brc1cccc2c1CC(N1CCCC1)CC2 (single isomer, unassigned; (+)) [Compound 59-1]
(III) c1ccc2c(c1)CCC(N1CCCCCC1)C2 (centres unmarked) [Compound 57-3]
(IV) NC(=O)c1cccc2c1CC(N1CCCCCC1)CC2 (centres unmarked) [Compound 58-1]
Prompt: // sort entries: pIC50, high to low // ordering of labels required in reply
Response: II, I, IV, III
(II: 8.40, I: 7.96, IV: 7.59, III: 6.99)
